Origin of the recorded values: ChEMBL document CHEMBL1142490

- protocol-description: Displacement of [3H]flunitrazepam from central benzodiazepine receptor in Sprague-Dawley rat cerebral cortex membrane by liquid scintillation counting
- Assay type: tissue-based
metric-name: Ki

Please look at this compound and report its Ki: `CCCN(CCC)C(=O)Cc1c(-c2ccc(Cl)c(N)c2)nc2c(Cl)cc(Cl)cn12`
> 0.01 µM

Answer with the recorded Ki of `CCCN(CCC)C(=O)Cc1c(-c2nccs2)nc2c(Cl)cc(Cl)cn12` only.
> 0.01 µM

Give the measured Ki for `CCCN(CCC)C(=O)Cc1c(-c2ccc(Cl)c(NC(=O)CCC(=O)O)c2)nc2c(Cl)cc(Cl)cn12`
> 0.01 µM

Entry `CCCN(CCC)C(=O)Cc1c(-c2ccc(Cl)cc2)nc2c(NC(=O)CC(=O)O)cccn12` needs its Ki filled in; supply it.
> 0.01 µM

Indicate the recorded Ki value for this compound: CCC(C)N(C)C(=O)c1cc2ccccc2c(-c2ccccc2Cl)n1 (centres undefined) [PK-11195]
> 0.01 µM

Given the compound `CCCN(CCC)C(=O)Cc1c(-c2ccc(Cl)c([N+](=O)[O-])c2)nc2c(Cl)cc(Cl)cn12` , write its reported Ki.
> 0.01 µM

Supply reported Ki belonging to this compound: `COc1ccc(-c2nc3c(Cl)cc(Cl)cn3c2CC(=O)N(C)c2ccccc2)cc1`
1 µM

Note down Ki recorded for `CCCN(CCC)C(=O)Cc1c(-c2ccc(OC)cc2)nc2c(Cl)cc(Cl)cn12`
> 0.01 µM

Please supply the value of reported Ki for the item `CCCN(CCC)C(=O)Cc1c(-c2ccc(Cl)cc2)nc2c(NC(=O)CCC(=O)O)cccn12`
> 0.01 µM

// fetch Ki given entry `CCCCN(C)C(=O)Cc1c(-c2ccc(O)cc2)nc2c(Cl)cc(Cl)cn12`
2.93 µM

Note Ki for the compound shown: `CCCN(CCC)C(=O)Cc1c(-c2ccc([N+](=O)[O-])cc2)nc2c(Cl)cc(Cl)cn12`
> 0.01 µM

Given `CCCCN(C)C(=O)Cc1c(-c2ccc(OC)cc2)nc2c(Cl)cc(Cl)cn12` , respond with its Ki.
> 0.01 µM

Tell us which Ki value is on record for `CCCCN(C)C(=O)Cc1c(-c2ccc(Cl)c([N+](=O)[O-])c2)nc2c(Cl)cccn12`
> 0.01 µM

Provide measured Ki value, entry: `CCCCN(C)C(=O)Cc1c(-c2ccc(Cl)c(N)c2)nc2c(Cl)cc(Cl)cn12`
0.535 µM

Respond only with Ki recorded for `CCCN(CCC)C(=O)Cc1c(-c2ccc(Cl)cc2)nc2c(NC(=O)CCCC(=O)O)cccn12`
> 0.01 µM

Report Ki, nothing else, for this compound: `CN(C(=O)Cc1c(-c2nccs2)nc2c(Cl)cc(Cl)cn12)c1ccccc1`
> 0.01 µM

Return reported Ki. Input compound: `CCCN(CCC)C(=O)Cc1c(-c2ccc(Cl)cc2)nc2c(NC(=O)CN)cccn12`
> 0.01 µM

Please supply the value of reported Ki for the item `CCCN(CCC)C(=O)Cc1c(-c2ccc(O)cc2)nc2c(Cl)cc(Cl)cn12`
> 0.01 µM

Quickly give me recorded Ki for `CCCCN(C)C(=O)Cc1c(-c2ccc(Cl)c(N)c2)nc2c(Cl)cccn12`
0.194 µM
